Biological target: T1, DcR3 (UniProt O95407 30-300, limits assumed)
T1 construct: the construct is not described; also called decoy receptor DcR3; TNFRSF6B
T1 sequence (looked up): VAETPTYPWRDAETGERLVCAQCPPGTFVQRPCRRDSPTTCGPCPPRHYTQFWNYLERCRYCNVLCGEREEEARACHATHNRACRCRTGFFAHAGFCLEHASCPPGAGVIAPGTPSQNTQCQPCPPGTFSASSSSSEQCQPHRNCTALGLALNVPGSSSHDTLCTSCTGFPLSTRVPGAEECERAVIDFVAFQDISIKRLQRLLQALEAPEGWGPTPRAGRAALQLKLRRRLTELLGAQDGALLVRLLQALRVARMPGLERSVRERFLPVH
Assay: ELISA, DcR3
OBSERVABLE: Rel EC50

Sample answers from the record:
- BINDER: "TL1W41 (His-TEV-TL1A E120A) (ligand, also called TL1W41 (E120A)) HHHHHHENLYFQGLKGQEFAPSHQQVYAPLRADGDKPRAHLTVVRQTPTQHFKNQFPALHWAHELGLAFTKNRMNYTNKFLLIPESGDYFIYSQVTFRGMTSECSEIRQAGRPNKPDSITVVITKVTDSYPEPTQLLMGTKSVCEVGSNWFQPIYLGAMFSLQEGDKLMVNVSDISLVDYTKEDKTFFGAFLL"
  EXPERIMENTAL RESULT: "7.1 ratio (head: nM)"
- BINDER: "TL1W107 (His-TEV-TL1A D186Y) (ligand, also called TL1W107 (D186Y)) HHHHHHENLYFQGLKGQEFAPSHQQVYAPLRADGDKPRAHLTVVRQTPTQHFKNQFPALHWEHELGLAFTKNRMNYTNKFLLIPESGDYFIYSQVTFRGMTSECSEIRQAGRPNKPDSITVVITKVTYSYPEPTQLLMGTKSVCEVGSNWFQPIYLGAMFSLQEGDKLMVNVSDISLVDYTKEDKTFFGAFLL"
  EXPERIMENTAL RESULT: "1.4 ratio (head: nM)"
- BINDER: "TL1W124 (His-TEV-TL1A N207K) (ligand, also called TL1W124 (N207K)) HHHHHHENLYFQGLKGQEFAPSHQQVYAPLRADGDKPRAHLTVVRQTPTQHFKNQFPALHWEHELGLAFTKNRMNYTNKFLLIPESGDYFIYSQVTFRGMTSECSEIRQAGRPNKPDSITVVITKVTDSYPEPTQLLMGTKSVCEVGSKWFQPIYLGAMFSLQEGDKLMVNVSDISLVDYTKEDKTFFGAFLL"
  EXPERIMENTAL RESULT: "3.4 ratio (head: nM)"

Exercise: Data request, read-out Rel EC50, for TL1W25 (His-TEV-hTL1A 72-251 N207A) (ligand, also called TL1W25 (N207A)) HHHHHHENLYFQGLKGQEFAPSHQQVYAPLRADGDKPRAHLTVVRQTPTQHFKNQFPALHWEHELGLAFTKNRMNYTNKFLLIPESGDYFIYSQVTFRGMTSECSEIRQAGRPNKPDSITVVITKVTDSYPEPTQLLMGTKSVCEVGSAWFQPIYLGAMFSLQEGDKLMVNVSDISLVDYTKEDKTFFGAFLL
Key: 0.8 ratio (head: nM)

Exercise: Data request, read-out Rel EC50, for TL1W112 (His-TEV-TL1A P189F) (ligand, also called TL1W112 (P189F)) HHHHHHENLYFQGLKGQEFAPSHQQVYAPLRADGDKPRAHLTVVRQTPTQHFKNQFPALHWEHELGLAFTKNRMNYTNKFLLIPESGDYFIYSQVTFRGMTSECSEIRQAGRPNKPDSITVVITKVTDSYFEPTQLLMGTKSVCEVGSNWFQPIYLGAMFSLQEGDKLMVNVSDISLVDYTKEDKTFFGAFLL
Key: 14.4 ratio (head: nM)

Exercise: Data request, read-out Rel EC50, for TL1W128 (His-TEV-TL1A Y238S) (ligand, also called TL1W128 (Y238S)) HHHHHHENLYFQGLKGQEFAPSHQQVYAPLRADGDKPRAHLTVVRQTPTQHFKNQFPALHWEHELGLAFTKNRMNYTNKFLLIPESGDYFIYSQVTFRGMTSECSEIRQAGRPNKPDSITVVITKVTDSYPEPTQLLMGTKSVCEVGSNWFQPIYLGAMFSLQEGDKLMVNVSDISLVDSTKEDKTFFGAFLL
Key: 2.3 ratio (head: nM)

Exercise: Data request, read-out Rel EC50, for TL1W27 (His-TEV-hTL1A 72-251 T239E) (ligand, also called TL1W27 (T239E)) HHHHHHENLYFQGLKGQEFAPSHQQVYAPLRADGDKPRAHLTVVRQTPTQHFKNQFPALHWEHELGLAFTKNRMNYTNKFLLIPESGDYFIYSQVTFRGMTSECSEIRQAGRPNKPDSITVVITKVTDSYPEPTQLLMGTKSVCEVGSNWFQPIYLGAMFSLQEGDKLMVNVSDISLVDYEKEDKTFFGAFLL
Key: 7.5 ratio (head: nM)

Exercise: Data request, read-out Rel EC50, for TL1W132 (His-TEV-TL1A T239A) (ligand, also called TL1W132 (T239A)) HHHHHHENLYFQGLKGQEFAPSHQQVYAPLRADGDKPRAHLTVVRQTPTQHFKNQFPALHWEHELGLAFTKNRMNYTNKFLLIPESGDYFIYSQVTFRGMTSECSEIRQAGRPNKPDSITVVITKVTDSYPEPTQLLMGTKSVCEVGSNWFQPIYLGAMFSLQEGDKLMVNVSDISLVDYAKEDKTFFGAFLL
Key: 5.9 ratio (head: nM)
